biological target: UniProt:Q5JUK3; experiment: FLIPR Tl/K Flux Assay; details: HEK293 cells stably expressing human KCNT1; Tl+ flux stimulated with EC80 of agonist Loxapine
pIC50: −log10 of the molar value.
Property: pIC50; scope: individual molecules

- Molecule: "O=C(N[C@H]1CCCc2oc(-c3ccnc(C4CC4)c3)nc21)c1cn(C(F)(F)F)nc1C(F)F [Compound I-505a]"
  pIC50: "> 6.60"
- Molecule: "Cc1cnc(C(F)(F)F)cc1-n1cc2c(n1)CC[C@@H]2NC(=O)c1cc(C(F)(F)F)nn1C [Compound I-304a]"
  pIC50: "> 6.60"
- Molecule: "N#Cc1cccc(C(=O)N[C@H]2CCn3nc(-c4ccnc(C(F)(F)F)c4)cc32)c1 [Compound I-342a]"
  pIC50: "> 6.60"

====

Each entry below lists one item and its recorded IC50 value.
target: human, KCNT1 (Homo sapiens (Human)); assay: FLIPR Tl/K Flux Assay; conditions: HEK293 cells stably expressing human KCNT1; Tl+ flux stimulated with EC80 of agonist Loxapine
Sequence (Q5JUK3 whole entry): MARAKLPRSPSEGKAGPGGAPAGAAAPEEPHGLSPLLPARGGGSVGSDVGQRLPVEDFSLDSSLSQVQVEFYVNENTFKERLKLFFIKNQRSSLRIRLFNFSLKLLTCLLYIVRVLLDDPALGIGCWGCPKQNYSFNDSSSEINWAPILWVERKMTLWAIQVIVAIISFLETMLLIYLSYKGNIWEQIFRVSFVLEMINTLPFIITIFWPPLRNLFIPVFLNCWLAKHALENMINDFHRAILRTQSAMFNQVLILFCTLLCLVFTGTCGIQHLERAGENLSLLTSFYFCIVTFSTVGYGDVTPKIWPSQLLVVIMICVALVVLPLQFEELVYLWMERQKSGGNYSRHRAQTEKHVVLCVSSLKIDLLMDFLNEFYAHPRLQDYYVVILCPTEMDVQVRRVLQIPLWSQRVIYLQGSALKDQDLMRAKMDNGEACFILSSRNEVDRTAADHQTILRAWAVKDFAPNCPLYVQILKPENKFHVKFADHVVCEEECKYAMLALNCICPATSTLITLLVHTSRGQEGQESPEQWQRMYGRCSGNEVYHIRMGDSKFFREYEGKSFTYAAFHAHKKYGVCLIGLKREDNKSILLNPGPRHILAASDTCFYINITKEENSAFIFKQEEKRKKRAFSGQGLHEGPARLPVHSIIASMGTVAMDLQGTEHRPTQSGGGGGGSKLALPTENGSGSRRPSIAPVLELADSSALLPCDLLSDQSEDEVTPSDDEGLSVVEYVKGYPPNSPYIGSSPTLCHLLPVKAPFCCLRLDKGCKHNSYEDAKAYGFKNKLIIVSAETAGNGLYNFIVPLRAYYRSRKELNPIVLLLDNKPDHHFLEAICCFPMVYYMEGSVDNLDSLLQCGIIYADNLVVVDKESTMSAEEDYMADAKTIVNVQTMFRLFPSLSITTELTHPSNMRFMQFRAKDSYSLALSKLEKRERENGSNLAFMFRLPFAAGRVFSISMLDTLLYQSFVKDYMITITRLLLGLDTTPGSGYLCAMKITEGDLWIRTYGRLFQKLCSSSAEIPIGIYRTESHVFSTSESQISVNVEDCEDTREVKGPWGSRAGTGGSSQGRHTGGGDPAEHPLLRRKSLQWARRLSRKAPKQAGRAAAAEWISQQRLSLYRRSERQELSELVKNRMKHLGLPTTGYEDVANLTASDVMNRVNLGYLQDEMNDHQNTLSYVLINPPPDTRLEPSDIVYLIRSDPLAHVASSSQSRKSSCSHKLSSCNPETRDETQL
Result Type: IC50

- Molecule: "O=C(NC1CCCc2nn(-c3ccnc(C(F)(F)F)c3)cc21)c1ccccc1 (racemic) [Compound I-13]"
  Subject Of Test: "human, KCNT1 (Homo sapiens (Human))"
  Result Type: "IC50"
  Measurement: "< 250 nM"
- Molecule: "O=C(N[C@H]1CCn2nc(-c3cc(C(F)(F)F)ncc3F)cc21)c1ccnc(OC(F)F)c1 [Compound I-547a]"
  Subject Of Test: "human, KCNT1 (Homo sapiens (Human))"
  Result Type: "IC50"
  Measurement: "< 250 nM"
- Molecule: "CC(C)n1cnc(C(=O)N[C@H]2CCCn3nc(-c4ccnc(C(F)(F)F)c4)cc32)n1 [Compound I-412a]"
  Subject Of Test: "human, KCNT1 (Homo sapiens (Human))"
  Result Type: "IC50"
  Measurement: "> 1000 nM"

====

Quick list: pIC50 per entry.
biological target: human, KCNT1 (Homo sapiens (Human)); assay: FLIPR Tl/K Flux Assay; format: cell-based; details: HEK293 cells stably expressing human KCNT1; Tl+ flux stimulated with EC80 of agonist Loxapine
pIC50: −log10 of the molar value.
Result Type: pIC50

- Compound: "COc1cc(-c2cc3n(n2)CC[C@H]3NC(=O)c2cc(F)cc(F)c2)ccn1 [Compound I-447b]"
  Measurement: "> 6.60"
- Compound: "O=C(NC1CCCc2nn(-c3ccnc(C(F)(F)F)c3)cc21)c1ccnc(C(F)(F)F)c1 (racemic)"
  Measurement: "> 6.60"
- Compound: "CC(C)(C)C(=O)N[C@@H]1CCc2nn(-c3ccnc(C(F)(F)F)c3)cc21 [Compound I-104b]"
  Measurement: "< 6.00"
- Compound: "O=C(N[C@H]1CCn2nc(-c3ccnc(C4CC4)c3)cc21)c1ccc(C(F)(F)F)nc1 [Compound I-66a]"
  Measurement: "> 6.60"
- Compound: "Cn1nc(C(F)(F)F)cc1C(=O)N[C@H]1CCCc2oc(-c3ccnc(C4CC4)c3)nc21 [Compound I-121a]"
  Measurement: "> 6.60"
- Compound: "Cn1nc(C2CC2)cc1C(=O)N[C@H]1CCCn2nc(-c3ccnc(C(F)(F)F)c3)cc21 [Compound I-347a]"
  Measurement: "> 6.60"
- Compound: "Cn1nc(C(F)(F)F)cc1C(=O)N[C@@H]1CCCCc2nn(-c3ccnc(C(F)(F)F)c3)cc21 [Compound I-45b]"
  Measurement: "< 6.00"
- Compound: "O=C(N[C@H]1CCCn2nc(-c3cc(C(F)(F)F)ncc3Cl)cc21)c1ccnc(OC(F)(F)F)c1 [Compound I-179a]"
  Measurement: "> 6.60"
- Compound: "O=C(N[C@H]1CCCn2nc(-c3ccnc(C(F)(F)F)c3)cc21)c1cccc(F)c1F [Compound I-405a]"
  Measurement: "> 6.60"
- Compound: "Cn1nc(C(F)(F)F)cc1C(=O)N[C@H]1CCCn2nc(-c3cnnc(C(F)(F)F)c3)cc21 [Compound I-307a]"
  Measurement: "6.00 to 6.30"
- Compound: "O=C(N[C@H]1CCn2nc(-c3cc(C(F)(F)F)ncc3F)cc21)C12CC(CC(F)F)(C1)C2 [Compound I-558a]"
  Measurement: "> 6.60"
- Compound: "COc1cc(-c2cc3n(n2)CC[C@@H]3NC(=O)c2cn(C(F)(F)F)nc2C)ccn1 [Compound I-240a]"
  Measurement: "> 6.60"
- Compound: "CCOc1cc(C(=O)N[C@H]2CCn3nc(-c4ccnc(C5CC5)c4)cc32)ccn1 [Compound I-541a]"
  Measurement: "> 6.60"
- Compound: "CCOc1cc(-n2cc3c(n2)CCCC3NC(=O)c2cc(C(F)(F)F)nn2CC)ccn1 (racemic)"
  Measurement: "> 6.60"
- Compound: "O=C(N[C@H]1CCCc2nc(-c3ccnc(C4CC4)c3)oc21)c1cc(Cl)cc(Cl)c1 [Compound I-153a]"
  Measurement: "> 6.60"
- Compound: "Cn1nc(C(F)F)cc1C(=O)N[C@H]1CCCn2nc(-c3ccnc(C(F)(F)F)c3)cc21 [Compound I-348a]"
  Measurement: "> 6.60"
- Compound: "O=C(N[C@H]1CCCc2oc(-c3ccnc(C4CC4)c3)nc21)c1cnn(C(F)(F)F)c1C(F)(F)F [Compound I-530a]"
  Measurement: "> 6.60"
- Compound: "N#Cc1cccc(C(=O)N[C@H]2CCCCc3oc(-c4ccnc(C(F)(F)F)c4)nc32)c1 [Compound I-160a]"
  Measurement: "> 6.60"
- Compound: "O=C(N[C@H]1CCCc2nc(-c3cc(C4CC4)ncc3F)oc21)c1ccnc(OC(F)(F)F)c1 [Compound I-158a]"
  Measurement: "> 6.60"
- Compound: "Cn1nc(C(F)(F)F)cc1C(=O)N[C@@H]1CCCc2ncc(-c3ccnc(C(F)(F)F)c3)cc21 [Compound I-383b]"
  Measurement: "< 6.00"
- Compound: "CCOc1cc(F)cc(C(=O)N[C@H]2CCn3nc(-c4cc(OC)ncc4F)cc32)c1 [Compound I-574a]"
  Measurement: "> 6.60"
- Compound: "Cn1nc(C(F)(F)F)nc1C(=O)N[C@H]1CCc2nn(-c3ccnc(C(F)(F)F)c3)cc21 [Compound I-308a]"
  Measurement: "> 6.60"
- Compound: "Cc1cc(C(=O)N[C@H]2CCCn3nc(-c4ccnc(C(F)(F)F)c4)cc32)n(C(F)F)n1 [Compound I-426a]"
  Measurement: "> 6.60"
- Compound: "COc1cc(-c2nc3c(o2)CCC[C@@H]3NC(=O)c2cc3cccnn3c2)ccn1 [Compound I-293a]"
  Measurement: "6.30 to 6.60"
- Compound: "Cn1cc(C(=O)N[C@H]2CCCn3nc(-c4ccnc(C(F)(F)F)c4)cc32)c(C(F)(F)F)c1 (single isomer, unassigned) [Compound I-409a]"
  Measurement: "> 6.60"
- Compound: "O=C(N[C@H]1CCCn2nc(-c3ccnc(C(F)(F)F)c3)cc21)c1cn(C(F)(F)F)nc1C(F)F [Compound I-497a]"
  Measurement: "> 6.60"
- Compound: "Cn1nc(C(F)(F)F)cc1C(=O)N[C@H]1CCCn2nc(-c3ccnc(C4CC4)c3)cc21 [Compound I-64a]"
  Measurement: "> 6.60"

====

molecular target: human, KCNT1 (Homo sapiens (Human)); assay: FLIPR Tl/K Flux Assay; conditions: HEK293 cells stably expressing human KCNT1; Tl+ flux stimulated with EC80 of agonist Loxapine
Result Type: IC50

- Compound: "Cn1nc(C(F)(F)F)cc1C(=O)N[C@@H]1CCCCc2nn(-c3ccnc(C4CC4)c3)cc21 [Compound I-56b]"
  Measurement: "500 to 1000 nM"
- Compound: "Cn1nc(C(F)(F)F)cc1C(=O)N[C@@H]1CCCn2nc(-c3ccnc(C(F)(F)F)c3)cc21 [Compound I-42b]"
  Measurement: "> 1000 nM"
- Compound: "Cn1nc(C(F)(F)F)cc1C(=O)N[C@H]1CCCn2nc(-c3ccnc(C4CCC4)c3)cc21 [Compound I-377a]"
  Measurement: "< 250 nM"
- Compound: "Cn1nc(C(F)(F)F)nc1C(=O)N[C@@H]1CCn2nc(-c3cc(C(F)(F)F)ncc3Cl)cc21 [Compound I-481b]"
  Measurement: "250 to 500 nM"
- Compound: "COc1cc(-c2nc3c(o2)[C@@H](NC(=O)c2cc(Cl)cc(Cl)c2)CCC3)c(Cl)cn1 [Compound I-162a]"
  Measurement: "< 250 nM"
- Compound: "O=C(N[C@H]1CCCc2cnc(-c3ccnc(C(F)(F)F)c3)cc21)c1cc2cccnn2c1 (single isomer, unassigned) [I-268*]"
  Measurement: "> 1000 nM"
- Compound: "Cc1cnc(C(F)(F)F)cc1-c1cc2n(n1)CCC[C@@H]2NC(=O)c1ccnc(OC(F)(F)F)c1 [Compound I-181a]"
  Measurement: "< 250 nM"
- Compound: "CC(C)n1nc(C(F)(F)F)cc1C(=O)N[C@H]1CCCn2nc(-c3ccnc(C(F)(F)F)c3)cc21 [Compound I-381a]"
  Measurement: "< 250 nM"
- Compound: "Cn1nc(C(F)F)cc1C(=O)NC1CCCc2nn(-c3ccnc(C(F)(F)F)c3)cc21 (racemic) [Compound I-12]"
  Measurement: "< 250 nM"
- Compound: "N#Cc1cc(F)cc(C(=O)N[C@H]2CCc3nn(-c4ccnc(C(F)(F)F)c4)cc32)c1 [Compound I-455a]"
  Measurement: "< 250 nM"
- Compound: "N#Cc1cc(F)cc(C(=O)N[C@H]2CCCc3oc(-c4ccnc(C(F)(F)F)c4)nc32)c1 [Compound I-298a]"
  Measurement: "< 250 nM"
- Compound: "Cn1nc(C(F)(F)F)nc1C(=O)N[C@H]1CCn2nc(-c3ccnc(C(F)(F)F)c3)cc21 [Compound I-314a]"
  Measurement: "< 250 nM"
- Compound: "Cc1cccc(C(=O)N[C@H]2CCc3nn(-c4ccnc(C(F)(F)F)c4)cc32)c1 [Compound I-97a]"
  Measurement: "< 250 nM"
- Compound: "Cc1cc(C(=O)N[C@H]2CCCc3oc(-c4ccnc(C5CC5)c4)nc32)cc(C(F)(F)F)c1 [Compound I-242a]"
  Measurement: "< 250 nM"
- Compound: "CCOc1cc(-n2cc3c(n2)CCCC3NC(=O)c2cc(C)cc(C(F)(F)F)c2)ccn1 (racemic) [Compound I-15]"
  Measurement: "< 250 nM"
- Compound: "O=C(N[C@H]1CCn2nc(-c3ccnc(C(F)(F)F)c3)cc21)[C@@H]1C[C@@H]1C(F)(F)F [I-487^]"
  Measurement: "< 250 nM"
- Compound: "Cc1cccc(C(=O)N[C@H]2CCCCc3nn(-c4ccnc(C5CC5)c4)cc32)c1 [Compound I-58a]"
  Measurement: "< 250 nM"
- Compound: "O=C(N[C@H]1CCc2nn(-c3ccnc(C(F)(F)F)c3)cc21)c1cncc(C(F)(F)F)n1 [Compound I-565a]"
  Measurement: "< 250 nM"
- Compound: "O=C(N[C@H]1CCCn2nc(-c3ccnc(C(F)(F)F)c3)cc21)c1ccnc(C(F)(F)F)n1 [Compound I-327a]"
  Measurement: "< 250 nM"
- Compound: "O=C(N[C@H]1CCn2nc(-c3ccnc(C(F)(F)F)c3)cc21)c1cnn(C(F)(F)F)c1C(F)(F)F [Compound I-532a]"
  Measurement: "< 250 nM"
- Compound: "Cc1cnc(C(F)(F)F)cc1-c1cc2n(n1)CCCC[C@@H]2NC(=O)c1cc(C(F)(F)F)nn1C [Compound I-311a]"
  Measurement: "< 250 nM"
- Compound: "COc1cc(-c2cc3n(n2)CC[C@@H]3NC(=O)c2cc(F)cc(F)c2)ccn1 [Compound I-447a]"
  Measurement: "< 250 nM"

Origin of measurements: patent US20250313548A1
